I'd be grateful if you could share measured IC50 for these entries.
# EXPERIMENTAL SYSTEM: IRAK-1 (Homo sapiens, UniProt P51617)
# Construct: Recombinant, full-length IRAK-1 or IRAK-4 enzyme (baculovirus expression system) was added; Flag (N); made in house
# Sequence (P51617 whole entry): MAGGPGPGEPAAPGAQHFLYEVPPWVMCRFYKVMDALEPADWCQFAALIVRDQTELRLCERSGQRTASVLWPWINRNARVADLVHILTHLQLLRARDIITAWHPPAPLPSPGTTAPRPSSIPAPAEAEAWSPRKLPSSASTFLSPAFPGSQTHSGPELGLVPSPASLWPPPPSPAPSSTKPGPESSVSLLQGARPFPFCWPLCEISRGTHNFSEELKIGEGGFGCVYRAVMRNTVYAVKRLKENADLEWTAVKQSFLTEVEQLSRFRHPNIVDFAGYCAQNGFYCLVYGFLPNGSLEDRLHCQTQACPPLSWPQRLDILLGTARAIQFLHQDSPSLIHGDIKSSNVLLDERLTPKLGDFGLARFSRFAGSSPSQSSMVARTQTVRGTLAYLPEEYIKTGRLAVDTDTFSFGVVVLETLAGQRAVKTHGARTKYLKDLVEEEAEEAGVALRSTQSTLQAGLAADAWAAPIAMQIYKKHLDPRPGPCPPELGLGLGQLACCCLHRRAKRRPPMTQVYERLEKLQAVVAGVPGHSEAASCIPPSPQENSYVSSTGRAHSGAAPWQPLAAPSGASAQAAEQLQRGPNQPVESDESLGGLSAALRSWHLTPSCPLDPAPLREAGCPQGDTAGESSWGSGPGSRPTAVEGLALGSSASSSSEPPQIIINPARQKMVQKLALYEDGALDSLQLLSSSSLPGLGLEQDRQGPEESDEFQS
# ASSAY OVERVIEW: Enzymatic inhibition assay, IRAK-1 kinase activity (chemiluminescent ELISA)
# Format: biochemical

Field: example entries. Status: answers known.
- COMPOUND: "O=C(Nc1nc2ccccc2n1CCN1CCOCC1)c1cccs1 [Compound 14]"
  TEST READOUT: "IC50"
  MEASURED VALUE: "10 to 30 µM"
- COMPOUND: "COC(=O)c1ccc2c(c1)nc(NC(=O)c1cccc([N+](=O)[O-])c1)n2CCO [Compound 7a]"
  TEST READOUT: "IC50"
  MEASURED VALUE: "< 10 µM"
- COMPOUND: "O=C(Nc1nc2ccccc2n1CCO)c1ccc(Cl)c(Cl)c1 [Compound 10]"
  TEST READOUT: "IC50"
  MEASURED VALUE: "10 to 30 µM"
- COMPOUND: "CS(=O)(=O)c1cccc(C(=O)Nc2nc3ccccc3n2CCN2CCOCC2)c1 [Compound 12]"
  TEST READOUT: "IC50"
  MEASURED VALUE: "< 10 µM"
- COMPOUND: "O=C(Nc1nc2ccccc2n1CCO)c1cccc(Cl)c1 [Compound 9]"
  TEST READOUT: "IC50"
  MEASURED VALUE: "< 10 µM"

Please supply IC50 for each of the following items, keeping them in order.
1. O=C(Nc1nc2cc(F)c(F)cc2n1CCN1CCOCC1)c1cccc([N+](=O)[O-])c1 [Compound 4]
2. CCn1c(NC(=O)c2ccc(OC)cc2)nc2ccccc21 [Compound 8]
3. O=C(Nc1nc2ccccc2n1CCN1CCOCC1)c1ccc([N+](=O)[O-])o1 [Compound 13]
4. CCOC(=O)Cn1c(NC(=O)c2cccc([N+](=O)[O-])c2)nc2cc(F)c(F)cc21 [Compound 6]
5. COC(=O)CCCn1c(NC(=O)c2cccc([N+](=O)[O-])c2)nc2ccccc21 [Compound 5]
6. COC(=O)c1cccc(C(=O)Nc2nc3ccccc3n2CCN2CCOCC2)c1 [Compound 11]

RESULT:
1: < 10 µM; 2: 10 to 30 µM; 3: < 10 µM; 4: 10 to 30 µM; 5: < 10 µM; 6: < 10 µM
